TEST_METHOD_NOTES: physchem
ASSAY_SETUP: pH 7
VALUE_TYPE: logP
Field format: numeric only.

Exam item: State the recorded logP for this entry: COc1cc(/C=C/C(=O)OCC[N+](C)(C)C)cc(OC)c1O
Marked response: -3

The measurements presented in this section are drawn from patent US12611392B2.
